Assignment: determine reported per cent of control for the given molecules.
target: STK39 (human) (UniProt Q9UEW8); assay: KINOMEscan competition binding; conditions: compound 10.0 µM
Give bare numbers, in %.

Examples from the recorded data:
chemical_structure: COC(=O)Nc1ccc(-c2nc(N3CCOCC3)c3cnn(C4CCN(C(=O)OC)CC4)c3n2)cc1
system: STK39 (human) (UniProt Q9UEW8)
per cent of control, %: 67
--
chemical_structure: CC(C)n1nc(-c2cc3cc(O)ccc3[nH]2)c2c(N)ncnc21
system: STK39 (human) (UniProt Q9UEW8)
per cent of control, %: 97
--
chemical_structure: COc1ccc(-c2ccc3c(N4CCOCC4)nc(N4C[C@@H](C)O[C@@H](C)C4)nc3n2)cc1CO
system: STK39 (human) (UniProt Q9UEW8)
per cent of control, %: 100

What does the data say about its per cent of control? Entry: `CCC(=O)N1CCN(c2ccc(-n3c(=O)ccc4cnc5ccc(-c6cnc7ccccc7c6)cc5c43)cc2C(F)(F)F)CC1` 100
